Recorded values, source ChEMBL document CHEMBL2434863.

- Tested on: Streptococcus pneumoniae
- METHOD_SUMMARY: Potency index, ratio of linezolid MIC to compound MIC for Streptococcus pneumoniae SR26207 clinical isolate
- Assay type: functional
PROPERTY_LABEL: Ratio

Solved cases (5 shown):
RECORD_SMILES	TARGET_UNDER_TEST	ENDPOINT_RESULT
O=CN1CCN(c2c(F)cc(N3C[C@H](CNc4ccon4)OC3=O)cc2F)CCN1	Streptococcus pneumoniae	4
CC(=S)NC[C@H]1CN(c2cc(F)c(N3CCNN(C(N)=O)CC3)c(F)c2)C(=O)O1	Streptococcus pneumoniae	4
CC(=S)NC[C@H]1CN(c2ccc(N3CCNN(C(N)=O)CC3)c(F)c2)C(=O)O1	Streptococcus pneumoniae	4
O=CN1CCN(c2c(F)cc(N3C[C@H](Cn4ccnn4)OC3=O)cc2F)CCN1	Streptococcus pneumoniae	4
O=C1O[C@@H](Cn2ccnn2)CN1c1ccc(-c2ccc(N3CCNOCC3)nc2)c(F)c1	Streptococcus pneumoniae	2

In: Request the reported Ratio associated with `COC(=S)NC[C@H]1CN(c2cc(F)c(N3CCNN(C(N)=O)CC3)c(F)c2)C(=O)O1`
Out: 4

In: What value of measured Ratio is listed for `COC(=S)NC[C@H]1CN(c2cc(F)c(N3CCON(C(N)=O)CC3)c(F)c2)C(=O)O1` ?
Out: 4

In: # Ratio lookup, item `CC(=O)NC[C@H]1CN(c2ccc(-c3ccc(N4CCNOCC4)nc3)c(F)c2)C(=O)O1`
Out: 2

In: Ratio lookup needed for `COC(=S)NC[C@H]1CN(c2ccc(N3CCNN(C=O)CC3)c(F)c2)C(=O)O1` , thanks.
Out: 4

In: Please give the measured Ratio for this compound: `COC(=S)NC[C@H]1CN(c2ccc(N3CCNN(C(N)=O)CC3)c(F)c2)C(=O)O1`
Out: 4

* * *

- TARGET_UNDER_TEST: Cytochrome P450 2C9 (Homo sapiens, UniProt P11712)
- Sequence (P11712 whole entry): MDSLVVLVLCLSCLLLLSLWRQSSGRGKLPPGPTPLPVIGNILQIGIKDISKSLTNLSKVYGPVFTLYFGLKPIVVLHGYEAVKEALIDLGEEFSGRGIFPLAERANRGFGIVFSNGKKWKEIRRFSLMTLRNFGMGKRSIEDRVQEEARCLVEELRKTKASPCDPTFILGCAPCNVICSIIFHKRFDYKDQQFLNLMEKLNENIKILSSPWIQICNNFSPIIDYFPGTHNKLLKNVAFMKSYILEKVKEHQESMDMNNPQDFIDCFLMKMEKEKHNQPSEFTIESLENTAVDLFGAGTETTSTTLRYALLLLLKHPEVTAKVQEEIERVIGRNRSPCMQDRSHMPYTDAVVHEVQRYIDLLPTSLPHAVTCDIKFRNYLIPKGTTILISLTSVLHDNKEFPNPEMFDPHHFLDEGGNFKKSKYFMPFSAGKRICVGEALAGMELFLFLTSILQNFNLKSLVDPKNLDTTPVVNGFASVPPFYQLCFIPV
pIC50: −log10 of the molar value.
PROPERTY_LABEL: pIC50

RECORD_SMILES	pIC50
CNC(=O)N1CCN(c2ccc(N3C[C@H](CNC(=S)OC)OC3=O)cc2F)CCN1	< 4.70

Now consider a different compound.
In: I am curious: what pIC50 value has been reported for `COC(=S)NC[C@H]1CN(c2ccc(N3CCNN(C(=O)C(F)F)CC3)c(F)c2)C(=O)O1` ?
Out: < 4.70

* * *

- System: Enterococcus faecalis
- METHOD_SUMMARY: Antibacterial activity against Enterococcus faecalis SR1004 clinical isolate assessed as growth inhibition by broth microdilution method
- Format: functional
Labelling: MIC reported below 1 µg/mL becomes yes; at or above becomes no.

RECORD_SMILES	QUALITATIVE_LABEL
COC(=S)NC[C@H]1CN(c2ccc(N3CCNN(C(=O)C(F)F)CC3)c(F)c2)C(=O)O1	yes
O=C(NO)N1CCN(c2c(F)cc(N3C[C@H](Cn4ccnn4)OC3=O)cc2F)CCN1	no
CNC(=O)N1CCN(c2c(F)cc(N3C[C@H](Cn4ccnn4)OC3=O)cc2F)CCO1	no
CNC(=O)N1CCN(c2ccc(N3C[C@H](CNC(=S)OC)OC3=O)cc2F)CCN1	yes
CC(=O)NC[C@H]1CN(c2ccc(N3CCn4c(=O)c5cccnc5n4CC3)c(F)c2)C(=O)O1	no

In: For this compound, is MIC lower than 1 µg/mL? `Nc1cnc2c(c1)c(=O)n1n2CCN(c2c(F)cc(N3C[C@H](Cn4ccnn4)OC3=O)cc2F)CC1`
Out: no

In: Criterion: MIC strictly below 1 µg/mL. Is it met by `CC(=O)N1CCN(c2c(F)cc(N3C[C@H](Cn4ccnn4)OC3=O)cc2F)CCN1` ?
Out: no

* * *

- Tested on: Staphylococcus aureus
- METHOD_SUMMARY: Potency index, ratio of linezolid MIC to compound MIC for Staphylococcus aureus Smith
- Type: functional
Reported Ratio values follow for various molecules
Simply state the number, no unit and no words.

Recorded results for 6 molecules are shown here.
RECORD_SMILES	PROPERTY_LABEL	ENDPOINT_RESULT
O=CN1CCN(c2c(F)cc(N3C[C@H](Cn4ccnn4)OC3=O)cc2F)CCN1	Ratio	4
COC(=S)NC[C@H]1CN(c2cc(F)c(N3CCON(C(N)=O)CC3)c(F)c2)C(=O)O1	Ratio	4
O=CN1CCN(c2c(F)cc(N3C[C@H](CNc4ccon4)OC3=O)cc2F)CCN1	Ratio	4
O=C1O[C@@H](Cn2ccnn2)CN1c1ccc(-c2ccc(N3CCNOCC3)nc2)c(F)c1	Ratio	2
CC(=O)NC[C@H]1CN(c2ccc(-c3ccc(N4CCNOCC4)nc3)c(F)c2)C(=O)O1	Ratio	2
COC(=S)NC[C@H]1CN(c2ccc(N3CCNN(C(N)=O)CC3)c(F)c2)C(=O)O1	Ratio	4

In: Which Ratio reading was recorded for the molecule `COC(=S)NC[C@H]1CN(c2ccc(N3CCNN(C=O)CC3)c(F)c2)C(=O)O1` ?
Out: 4

In: Ratio for `COC(=S)NC[C@H]1CN(c2cc(F)c(N3CCNN(C(N)=O)CC3)c(F)c2)C(=O)O1` ?
Out: 4

In: Recorded Ratio of `CC(=S)NC[C@H]1CN(c2cc(F)c(N3CCNN(C(N)=O)CC3)c(F)c2)C(=O)O1` , please.
Out: 4

In: Fill blank: measured Ratio of the molecule `CC(=S)NC[C@H]1CN(c2ccc(N3CCNN(C(N)=O)CC3)c(F)c2)C(=O)O1` is ____.
Out: 4

* * *

- TARGET_UNDER_TEST: UniProt P10635
- Sequence (P10635 whole entry): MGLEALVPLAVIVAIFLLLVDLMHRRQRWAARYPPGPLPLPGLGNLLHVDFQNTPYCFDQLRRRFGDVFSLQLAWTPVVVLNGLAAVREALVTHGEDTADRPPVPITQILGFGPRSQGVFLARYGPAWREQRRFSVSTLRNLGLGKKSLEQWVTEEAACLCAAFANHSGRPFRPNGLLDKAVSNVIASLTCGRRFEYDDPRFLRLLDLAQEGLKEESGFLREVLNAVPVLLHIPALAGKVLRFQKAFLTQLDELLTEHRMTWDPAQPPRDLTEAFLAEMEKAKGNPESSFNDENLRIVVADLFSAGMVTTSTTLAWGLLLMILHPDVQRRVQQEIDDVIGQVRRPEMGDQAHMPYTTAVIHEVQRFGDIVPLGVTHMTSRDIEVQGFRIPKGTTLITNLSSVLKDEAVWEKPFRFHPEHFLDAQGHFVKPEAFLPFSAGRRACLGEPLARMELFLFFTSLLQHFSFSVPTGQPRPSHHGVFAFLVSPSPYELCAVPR
- METHOD_SUMMARY: Inhibition of CYP2D6 in human liver microsomes assessed as dextromethorphan O-demethylation after 20 mins by LC/MS/MS analysis
- Format: ADME, Microsome
pIC50: −log10 of the molar value.
PROPERTY_LABEL: pIC50

RECORD_SMILES	PROPERTY_LABEL	ENDPOINT_RESULT
COC(=S)NC[C@H]1CN(c2ccc(N3CCNN(C(=O)C(F)F)CC3)c(F)c2)C(=O)O1	pIC50	< 4.70

Consider now this further compound.
In: Fill in: pIC50 of `CNC(=O)N1CCN(c2ccc(N3C[C@H](CNC(=S)OC)OC3=O)cc2F)CCN1` is ___
Out: < 4.70

* * *

- System: Enterococcus faecalis
- METHOD_SUMMARY: Antibacterial activity against Enterococcus faecalis SR1004 clinical isolate assessed as growth inhibition by broth microdilution method
- Format: functional
PROPERTY_LABEL: MIC (µg/mL)
Answer with a number only, understood to be in µg/mL.

Some compounds with recorded MIC:
RECORD_SMILES	MIC, µg/mL
CC(=S)NC[C@H]1CN(c2cc(F)c(N3CCNN(C(N)=O)CC3)c(F)c2)C(=O)O1	0.25
O=C(C(F)F)N1CCN(c2c(F)cc(N3C[C@H](Cn4ccnn4)OC3=O)cc2F)CCN1	1
COC(=S)NC[C@H]1CN(c2cc(F)c(N3CCON(C(N)=O)CC3)c(F)c2)C(=O)O1	0.25
COC(=S)NC[C@H]1CN(c2cc(F)c(N3CCNN(C(N)=O)CC3)c(F)c2)C(=O)O1	0.5
CNC(=O)N1CCN(c2c(F)cc(N3C[C@H](CNC(=S)OC)OC3=O)cc2F)CCN1	0.25

In: Lab note: need MIC with Enterococcus faecalis for entry `CC(=O)NC[C@H]1CN(c2cc(F)c(N3CCn4c(=O)c5cccnc5n4CC3)c(F)c2)C(=O)O1` , please look it up.
Out: 1

In: Enterococcus faecalis / MIC / `CONC(=O)N1CCN(c2c(F)cc(N3C[C@H](CNC(=S)OC)OC3=O)cc2F)CCN1` : value?
Out: 0.5

In: Report MIC for `COC(=S)NC[C@H]1CN(c2cc(F)c(N3CCNN(C(C)=O)CC3)c(F)c2)C(=O)O1` tested on Enterococcus faecalis.
Out: 1

In: Form field: MIC recorded for `O=C(CO)N1CCN(c2ccc(-c3ccc(N4C[C@H](Cn5ccnn5)OC4=O)cc3F)cn2)CCO1` with Enterococcus faecalis (enter value)
Out: 2

In: What value of MIC on Enterococcus faecalis does `CC(=O)N1CCN(c2c(F)cc(N3C[C@H](CNC(C)=S)OC3=O)cc2F)CCO1` have?
Out: 0.5

In: What measured MIC is associated with `O=C(NO)N1CCN(c2c(F)cc(N3C[C@H](Cn4ccnn4)OC3=O)cc2F)CCO1` on Enterococcus faecalis?
Out: 4

* * *

- Test system: Staphylococcus aureus
- METHOD_SUMMARY: Antibacterial activity against methicillin-resistant Staphylococcus aureus SR3637 infected in JCL/ICR mouse systemic infection model assessed as mortality administered as iv measured over 7 days
- Type: functional
- MEASUREMENT_CONTEXT: 168 h
Class (required): determined from ED50; valid ranges are lower segment = under 2 mg/kg, middle segment = from 2 mg/kg up to 3 mg/kg, upper segment = 3 mg/kg and over

Examples from the recorded data:
RECORD_SMILES	QUALITATIVE_LABEL
COC(=S)NC[C@H]1CN(c2ccc(N3CCn4c(=O)c5cccnc5n4CC3)c(F)c2)C(=O)O1	upper segment
COC(=S)NC[C@H]1CN(c2ccc(N3CCNN(C(=O)C(F)F)CC3)c(F)c2)C(=O)O1	lower segment
CNC(=O)N1CCN(c2c(F)cc(N3C[C@H](CNC(=S)OC)OC3=O)cc2F)CCN1	upper segment
COC(=S)NC[C@H]1CN(c2cc(F)c(N3CCn4c(=O)c5cccnc5n4CC3)c(F)c2)C(=O)O1	upper segment
CNC(=O)N1CCN(c2ccc(N3C[C@H](CNC(=S)OC)OC3=O)cc2F)CCN1	lower segment
O=CN1CCN(c2c(F)cc(N3C[C@H](Cn4ccnn4)OC3=O)cc2F)CCN1	middle segment
COC(=S)NC[C@H]1CN(c2cc(F)c(N3CCNN(C(N)=O)CC3)c(F)c2)C(=O)O1	lower segment

# next compound below
In: For the record `COC(=S)NC[C@H]1CN(c2ccc(N3CCNN(C(C)=O)CC3)c(F)c2)C(=O)O1` , report the class its ED50 corresponds to.
Out: middle segment
